- ASSAY_COMMENT: clinical
- APPLIED_CONDITIONS: human, in vivo, 13.5 mg/m2
Entries and their measured half-life follow.
I only need the number, in h, no unit after it.

Look over these answered cases.
- COMPOUND: "CC[C@@]1(OC(=O)[C@H](C)O)C(=O)OCc2c1cc1n(c2=O)Cc2cc3c(CN(C)C)c(O)ccc3nc2-1 [TLC-U2, S,S-topotecan lactate]"
  half-life / h: 2.45
- COMPOUND: "CC[C@@]1(OC(=O)[C@@H](C)O)C(=O)OCc2c1cc1n(c2=O)Cc2cc3c(CN(C)C)c(O)ccc3nc2-1 [TLC-U1, S,R-topotecan lactate]"
  half-life / h: 2.85

Moving on to the next compound.
Specify reported half-life for the compound shown: CC[C@@]1(O)C(=O)OCc2c1cc1n(c2=O)Cc2cc3c(CN(C)C)c(O)ccc3nc2-1 [Topotecan, reference compound] 6.29

====

- ASSAY_COMMENT: clinical
- APPLIED_CONDITIONS: human, in vivo, 3 mg/m2, AUC0-t
ENDPOINT_NAME: AUC0-t
Answer with the number, then the unit.

Look over these answered cases.
- COMPOUND: "CC[C@@]1(OC(=O)[C@@H](C)O)C(=O)OCc2c1cc1n(c2=O)Cc2cc3c(CN(C)C)c(O)ccc3nc2-1 [TLC-U1, S,R-topotecan lactate]"
  AUC0-t: "24.6 ng·h/mL"
- COMPOUND: "CC[C@@]1(O)C(=O)OCc2c1cc1n(c2=O)Cc2cc3c(CN(C)C)c(O)ccc3nc2-1 [Topotecan, reference compound]"
  AUC0-t: "11.7 ng·h/mL"

Moving on to the next compound.
Specify reported AUC0-t for the compound shown: CC[C@@]1(OC(=O)[C@H](C)O)C(=O)OCc2c1cc1n(c2=O)Cc2cc3c(CN(C)C)c(O)ccc3nc2-1 [TLC-U2, S,S-topotecan lactate] 7.91 ng·h/mL

====

- ASSAY_COMMENT: clinical
- APPLIED_CONDITIONS: human, in vivo, 13.5 mg/m2
Entries and their measured Tmax follow.
I only need the number, in min, no unit after it.

- COMPOUND: "CC[C@@]1(OC(=O)[C@H](C)O)C(=O)OCc2c1cc1n(c2=O)Cc2cc3c(CN(C)C)c(O)ccc3nc2-1 [TLC-U2, S,S-topotecan lactate]"
  Tmax / min: 22

Specify reported Tmax for the compound shown: CC[C@@]1(OC(=O)[C@@H](C)O)C(=O)OCc2c1cc1n(c2=O)Cc2cc3c(CN(C)C)c(O)ccc3nc2-1 [TLC-U1, S,R-topotecan lactate] 18.5

====

- ASSAY_COMMENT: clinical
- APPLIED_CONDITIONS: human, in vivo, 60 mg/m2, AUC0-t
ENDPOINT_NAME: AUC0-t

Look over these answered cases.
- COMPOUND: "CC[C@@]1(O)C(=O)OCc2c1cc1n(c2=O)Cc2cc3c(CN(C)C)c(O)ccc3nc2-1 [Topotecan, reference compound]"
  OBSERVED_VALUE: "215 ng·h/mL"
- COMPOUND: "CC[C@@]1(OC(=O)[C@H](C)O)C(=O)OCc2c1cc1n(c2=O)Cc2cc3c(CN(C)C)c(O)ccc3nc2-1 [TLC-U2, S,S-topotecan lactate]"
  OBSERVED_VALUE: "107 ng·h/mL"

Moving on to the next compound.
Specify reported AUC0-t for the compound shown: CC[C@@]1(OC(=O)[C@@H](C)O)C(=O)OCc2c1cc1n(c2=O)Cc2cc3c(CN(C)C)c(O)ccc3nc2-1 [TLC-U1, S,R-topotecan lactate] 421 ng·h/mL
